Data provenance is PubChem BioAssay AID1259407.

test system: CCRIS mutagenicity, Ames/micronucleus/aberration tests; experiment: CCRIS mutagenicity studies; conditions: Test System: AMES SALMONELLA TYPHIMURIUM; Strain/Indicator: TA1537; Metabolic Activation: HAMSTER, LIVER, S-9, AROCLOR 1254; Method: STANDARD PLATE
Calls of active or inactive are those of the source. No rule for the calls is given here.
MEASUREMENT_LABEL: mutagenic call

# count of solved cases: 5
Input line: Look up mutagenic call with CCRIS mutagenicity, Ames/micronucleus/aberration tests for this compound: `CCOc1ccc(NC(C)=O)cc1N`
Output line: active; positive

Input line: What do you get for `O=C(O)/C=C/c1ccccc1` ?
Output line: inactive; negative

Input line: What do you get for `CC(=O)c1ccc(S(=O)(=O)NC(=O)NC2CCCCC2)cc1` ?
Output line: inactive; negative

Input line: What do you get for CCCC(O)C(CC)CO (stereo not drawn) ?
Output line: inactive; negative

Input line: What do you get for `O=C(CBr)c1ccccc1` ?
Output line: inactive; negative

More entries:
Input line: Look up mutagenic call with CCRIS mutagenicity, Ames/micronucleus/aberration tests for this compound: `CC(=O)Nc1ccc(S(=O)(=O)O)c2cc(S(=O)(=O)O)c(N=Nc3ccc(N=Nc4ccc(S(=O)(=O)O)cc4)c4ccc(S(=O)(=O)O)cc34)c(O)c12`
Output line: inactive; negative

Input line: What do you get for `FC(F)(F)c1ccc(Cl)cc1` ?
Output line: inactive; negative

Input line: What do you get for `CC/C(=C(\c1ccccc1)c1ccc(OCCN(C)C)cc1)c1ccccc1` ?
Output line: inactive; negative

Input line: What do you get for `C/C=C/c1ccc(O)c(OC)c1` ?
Output line: inactive; negative

Input line: What do you get for `O=C1c2ccccc2-c2ccccc21` ?
Output line: inactive; negative

Input line: What do you get for `O=c1c(O)c(-c2ccc(O)cc2)oc2cc(O)cc(O)c12` ?
Output line: active; positive

Input line: What do you get for `CC1(C)C(=O)[C@]2(C)CC[C@H]1C2` ?
Output line: inactive; negative

Input line: What do you get for `Oc1ccc2c(c1)OCO2` ?
Output line: inactive; negative

Input line: What do you get for `Cc1cc(-c2ccc(N=Nc3cc(S(=O)(=O)O)c4ccccc4c3N)c(C)c2)ccc1N=Nc1cc(S(=O)(=O)O)c2ccccc2c1N` ?
Output line: inactive; negative

Input line: What do you get for `O=C(O)c1ccccn1` ?
Output line: inactive; negative

Input line: What do you get for `Nc1ccc2cc3ccc(N)cc3nc2c1` ?
Output line: active; positive

Input line: What do you get for `C=CC(=O)OCC(CC)(COC(=O)C=C)COC(=O)C=C` ?
Output line: inactive; negative

Input line: What do you get for `Clc1nnc(Cl)c2ccccc12` ?
Output line: inactive; negative

Input line: What do you get for `CCCCC/C=C/C=C/C=O` ?
Output line: inactive; negative

Input line: What do you get for `CC1=CC(=O)CC(C)(C)C1` ?
Output line: inactive; negative

Input line: What do you get for `Cc1ccccc1Cl` ?
Output line: inactive; negative

Input line: What do you get for `COc1cc(-c2ccc(N=C=O)c(OC)c2)ccc1N=C=O` ?
Output line: inactive; negative

Input line: What do you get for `COc1ccc(-c2coc3cc(O)cc(O)c3c2=O)cc1` ?
Output line: inactive; negative

Input line: What do you get for `c1ccc(-c2ccc(-c3ccccc3)cc2)cc1` ?
Output line: inactive; negative

Input line: What do you get for O=C1N=NC(=O)C2C=CC=CC12 (stereo not drawn) ?
Output line: inactive; negative

Input line: What do you get for `c1cnccn1` ?
Output line: inactive; negative

Input line: What do you get for `C=C(C)C(=O)OCC(CC)(COC(=O)C(=C)C)COC(=O)C(=C)C` ?
Output line: inactive; negative

Input line: What do you get for `OC/C=C/c1ccccc1` ?
Output line: inactive; negative

Input line: What do you get for `Cc1nnc(NS(=O)(=O)c2ccc(N)cc2)s1` ?
Output line: inactive; negative

Input line: What do you get for `C[Si](C)(C)O[Si](C)(C)O[Si](C)(C)C` ?
Output line: inactive; negative

Input line: What do you get for `O=c1[nH]c2ccccc2o1` ?
Output line: inactive; negative

Input line: What do you get for `C=CC(=O)O` ?
Output line: inactive; negative

Input line: What do you get for `N#CSCSC#N` ?
Output line: inactive; negative
